- target: T1, PUF4 RNA-binding domain (Saccharomyces cerevisiae, UniProt P25339 537-888)
- T1 sequence: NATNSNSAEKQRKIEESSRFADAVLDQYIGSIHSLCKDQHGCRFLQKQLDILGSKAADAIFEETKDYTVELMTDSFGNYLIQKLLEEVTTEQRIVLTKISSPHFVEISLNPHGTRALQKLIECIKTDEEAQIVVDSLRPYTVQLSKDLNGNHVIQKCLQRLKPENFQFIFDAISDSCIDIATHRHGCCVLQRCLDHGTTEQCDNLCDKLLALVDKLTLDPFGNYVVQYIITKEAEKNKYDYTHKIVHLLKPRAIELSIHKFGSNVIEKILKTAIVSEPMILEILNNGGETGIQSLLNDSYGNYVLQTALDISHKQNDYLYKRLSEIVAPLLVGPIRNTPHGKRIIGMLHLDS
- test_details: Mg; RNA-MaP; 20 mM Na-HEPES pH 7.4, 30 mM KOAc, 0.75 mM MgCl2, 0.1% Tween-20, 5% glycerol, 0.1 mg/mL BSA, 2 mM DTT; 25 C; 0.0125-409.6 nM protein
- conditions_used: tags: N-His6-TEV cleaved; C-SNAP kept, Cy3B-labelled; label: tethered on chip by stalled RNA polymerase
So basically: is Kd under 30 nM? Then Condition met. Not under? Then Condition not met.

Solved cases below.
UCUCUUUAUAUCAUUAUCUCUU (ssRNA) [Ib_S1_P5E.1_K5.1_C5.1_H5.1_[G2A]_A5.1_[T6C]_F5.1_T5.1]    Condition not met
UCUCUUUAUAUAUUAUUAGCUCUCUU (ssRNA) [Id_ii_S1_P5E.3_K5.2_C5.2_[C-2T]_[T-1A]_H5.2_A5.1_F5.1_T5.2_[T11G]_[A12C]]    Condition met
UCUCUUAUUAUAUAUUAGCUCUCUU (ssRNA) [Id_ii_S1_P4E.3_K4.2_C4.2_[C-2A]_H4.2_A4.1_F4.1_T4.2_[T11C]]    Condition met
ACAAACUGACACUUAUUAAGACAAAC (ssRNA) [Id_ii_S3_P5E.4_K5.3_C5.2_[C-2T]_[T-1G]_H5.3_A5.1_F5.1_T5.2_[T11A]_[A12G]]    Condition not met

Incoming: Threshold test, Kd < 30 nM: UCUCUUUGUAUAUUAUUCUCUCUU (ssRNA) [Ie_S1_P4E.1_K4.1_C4.1_H4.1_A4.1_F4.1_[+9TTC]_T4.1]
Outgoing: Condition met

Incoming: For Id_ii_S2_P4E.4_K4.3_C4.2_H4.3_A4.1_F4.1_T4.2_[G10C]_[T11G] (ssRNA) RNA: UUUGAUUAAUAUGAUAUCGUUCUUUCUCUACACUAUUACGUUCUUUCUCGAUAUCAUAUUAAUCUUU , is the recorded Kd below the cut-off of 30 nM?
Outgoing: Condition not met

Incoming: Is the reported Kd for Ic_S2_P4E.1_K4.1_C4.1_H4.1_A4.1_[T5C]_[A6T]_F4.1_[T8C]_T4.1 (ssRNA) RNA: UUUGAUUAAUAUGAUAUCGUUCUUUCUUGUACUUCAUUCUUUCUCGAUAUCAUAUUAAUCUUU strictly below 30 nM?
Outgoing: Condition not met

Incoming: Please determine if Ib_S4_P4E.1_K4.1_C4.1_H4.1_[A4C]_A4.1_F4.1_[A9T]_T4.1 (ssRNA) RNA: UUUGACAACUGAUCGUUCUUUCUUGUCUAUUUUUCUUUCUCGAUCAGUUGUCUUU is below 30 nM in terms of Kd.
Outgoing: Condition not met
